Source of measurements: PubChem BioAssay (NCATS)

Below: a set of entries, each annotated with reported max response.
experimental-details: qHTS assay for small molecule agonists of the antioxidant response element (ARE) signaling pathway measured by Nrf2-dependant transcriptional activity - cell viability counter screen (AID 720653); also: % is scaled to controls: 0 for no effect and ±100 for the full control effect
recorded-conditions: ARE-bla HepG2 viability, CellTiter-Glo ATP luminescence, 16 h; active compounds read low
Results filed as inconclusive are left out.
Output spec: scalar in %, unitless text.

Example entries and their recorded answers appear below.
compound=O=C(O)CN(CCCN(CC(=O)O)CC(=O)O)CC(=O)O result_units=% recorded_number=-7.74
compound=OCc1cccc(Oc2ccccc2)c1 result_units=% recorded_number=2.09
compound=O=C(O)CCCCCCC(=O)O result_units=% recorded_number=-7.95
compound=Cn1sccc1=O result_units=% recorded_number=-9.28
compound=O=c1[nH]sc2ccccc12 result_units=% recorded_number=-17.7
compound="CN=C(N)NCC1CCOC1 (centres undefined)" result_units=% recorded_number=-1.14
compound="O=S(c1ccc(Cl)cc1)c1cc(Cl)c(Cl)cc1Cl (centres undefined)" result_units=% recorded_number=-25.7
compound=CCOC(=O)CC(O)(CC(=O)OCC)C(=O)OCC result_units=% recorded_number=-8.63

Prompt: Specify measured max response for `CCCCCCCCCCCCCCCCCC(N)=O` .
Completion: 5.14
